- Test system: SK-OV-3 ovarian
- METHOD: NCI-60 one-dose screen, 48 h (100 = growth as untreated, 0 = no growth, -100 = all killed)
- RECORDED CONDITIONS: 10 µM
The panel holds about 83,000 compounds, 20% with a hit somewhere; the sample as a whole holds those more often.
I'd be grateful if you could share measured growth for these entries.
Answers are plain numbers, in %.

Below: 4 compounds and their reported growth.
COMPOUND	growth, %
Cc1nc2ccccc2c(C(=O)O)c1O	95.3
Cc1cc(OCCO)cc(C)c1Cl	117
CC(=O)c1ccc(N=C(C#N)C2=C(O)c3ccccc3C2=O)cc1	95
CC(C)=CC(=O)OC(=O)C=C(C)C	96.8

Report growth for every entry below.
1. C#CC(C(C)C)N(CCO)CCCC (stereo unspecified)
2. CC1(C)N=C(N)N=C(N)N1c1cccc(Br)c1

[106, 44.3]

---

- Tested on: HCT-15 colon
- METHOD: NCI-60 one-dose screen, 48 h
- RECORDED CONDITIONS: 10 µM
- Protocol: Growth inhibition of the HCT-15 human tumor cell line is measured as a screen for anti-cancer activity. Cells are grown in 96 well plates and exposed to the test compound for 48 hours. Compounds are tested at a single concentration, which is 10^-5 M for most compounds. The reported endpoint is percent growth (GI% or GIPRCNT), where numbers from 0 - 100% represent growth inhibition, and numbers from -100% - 0 represent cell death. For example, a value of 40 represents 60% growth inhibition. […]
About 83,000 compounds went through this panel and 20% of them were active in at least one assay; those are over-represented in the sample as a whole. Activity calls are given as the source filed them. The calls were made as follows: active = growth percent below 10; inactive = the rest.
Thanks in advance; please answer with one of these: active, inactive

Known results for compounds:
COMPOUND	CATEGORY LABEL
COc1cccc(O)c1O	inactive
O=C(O)[C@@H]1[C@H]2C[C@H]3c4[nH]c5ccccc5c4CCN3C[C@@H]2CC[C@@H]1O	inactive
CCC(C)(O)c1ccc(C)cc1 (configuration not stated)	inactive
CC(=O)Nc1cccc(Cl)c1C	inactive
CCN(CC)CCCC(C)Nc1ccnc(/C=C/c2ccc(Cl)cc2)c1 (configuration not stated)	active

Fill in: this test's call for O=C(/C=C\c1ccc(O)cc1)c1ccccc1 is ___
inactive

Fill in: this test's call for c1ccc(Sc2ccccc2)cc1 is ___
inactive

Fill in: this test's call for CC1C(=O)c2ccccc2CC1C(=O)O (configuration not stated) is ___
inactive

Fill in: this test's call for O=c1cc(-c2ccccc2)[nH]c2c1CCCC2 is ___
inactive

Fill in: this test's call for C[N+](C)(C)C(=O)c1ccccc1 is ___
inactive

Fill in: this test's call for C=CCNC(=O)c1ccc(OC)cc1 is ___
inactive

Fill in: this test's call for COC(=O)c1[nH]c(=O)c(C#N)c(C(=O)OC)c1C(=O)c1ccccc1 is ___
inactive

Fill in: this test's call for Cc1ccc(N)cc1[N+](=O)[O-] is ___
inactive

---

I'd be grateful if you could share measured growth for these entries.
- Tested on: NCI-H322M lung
- METHOD: NCI-60 one-dose screen, 48 h (100 = growth as untreated, 0 = no growth, -100 = all killed)
- RECORDED CONDITIONS: 10 µM
About 83,000 compounds went through this panel and 20% of them were active in at least one assay; those are over-represented in the sample as a whole.
Give bare numbers, in %.

Below: 5 molecules and their reported growth.
MOLECULE	MEASUREMENT LABEL	UNITS SYMBOL	REPORTED MEASUREMENT
COc1cc(/C=C(\C#N)C(=O)c2ccccc2)ccc1OCc1ccccc1	growth	%	91.6
NC(=S)CN1CCOCC1	growth	%	91.6
CC(=O)NCc1cc(C)c(C)cc1C	growth	%	92
CCOC(=O)CNN	growth	%	98
COc1cc2cc(OC(C)=O)c3cc4c(cc3c2c(OC)c1OC)OCO4	growth	%	95.4

Report growth for every entry below.
1. O=[N+]([O-])c1cccc(C(F)(F)F)c1
2. Cc1ccc(C(=O)c2ccccc2)c(C)c1
3. O=C(O)[C@@H]1[C@H]2C[C@H]3c4[nH]c5ccccc5c4CCN3C[C@@H]2CC[C@@H]1O
4. CC1CCCCN1C(=S)Nc1ccc(S(=O)(=O)N2CCCCC2)cc1 (stereo unspecified)
5. COc1ncnc2c1cnn2C
6. COc1cc(OC)c2ccc(=O)oc2c1
7. C=C1CC/C=C(\C)C(=O)C[C@@H]2[C@@H]1CC2(C)C

1: 132; 2: 105; 3: 110; 4: 118; 5: 116; 6: 107; 7: 119
